B1: CPEB3 Ribozyme (parent)
chain: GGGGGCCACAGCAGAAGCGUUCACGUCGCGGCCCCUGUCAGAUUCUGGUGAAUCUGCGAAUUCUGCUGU

variants of: B1; test: self-cleavage, relative activity (ratio to wild type); higher = more cleavage; co-transcriptional
The entries below are paired with their reported self-cleavage.
Metric name: self-cleavage

1) CGGGGCCACAGCAGAAGCGUUCACGUCGCGGCCCCUGUCAGAUUCUGGUGAAUCUGCGUAUUCUGCUGU
0.147
2) GGGGGCCACAGCAGAAGCGAUCACGUCGCGGCCCCUGUCAGAUUCUGGUGAAUCUUCGAAUUCUGCUGU
0.217
3) GGGGUCCACAGCAGAAGCGUUCACGUCGCGGCCCCUGUCAGAUUCUGGUGAAUCUGCGUAUUCUGCUGU
0.125
4) GGGGGCCACAGCAGAAGCGUUCACGUCGCGGCCCGUGUCAGAUUCUGGCGAAUCUGCGAAUUCUGCUGU
0.513
5) GGGGGCCACAGCAGACGCGUUCACGUUGCGGCCCCUGUCAGAUUCUGGUGAAUCUGCGAAUUCUGCUGU
0.15
6) GGGGGCCACAGCAGAAGCGUUCACGUCGCGGCGCCUGUCAGAUGCUGGUGAAUCUGCGAAUUCUGCUGU
0.333
7) GGGGGCCACAGCAGAAGCGUUCACGUCGCGGCCCCUUUCAGACUCUGGUGAAUCUGCGAAUUCUGCUGU
0.236
8) GGGGGCCACAGCAGAAGCGUUCACGUCGCGGCCCCUGUUAGAUUCUGUUGAAUCUGCGAAUUCUGCUGU
0.941
9) GGGGGCCACAGCAGAAGCGUUUGCGUCGCGGCCCCUGUCAGAUUCUGGUGAAUCUGCGAAUUCUGCUGU
0.307
10) GGGGGCCACACCAGAAGCGUUCACGUCGCGGCCCCUGUCAGAUUCUGGUGAAUCUGCGAAUUCAGCUGU
0.385
11) GGGGGCCACAGCAGAAGGGUUCACGUCGCGGCCCCUGUCAGAUUCUGGUAAAUCUGCGAAUUCUGCUGU
0.266
12) GGGGGCCACAGCACAAGCGUUCACGUCGCGGCCCCUGUCAGAUUCUGGUUAAUCUGCGAAUUCUGCUGU
0.618
13) AGGGGCCACAGCAGAAGCGUUCACGUCGCGGCCCCUGUCAGAUUCUGAUGAAUCUGCGAAUUCUGCUGU
0.0895
14) GGGGGCCACAGCAGAAGCGCUCACGUCGCGUCCCCUGUCAGAUUCUGGUGAAUCUGCGAAUUCUGCUGU
0.204
15) GGGGGCCACAGCAGAAGCUUUCACGUCGCGGCCCCUGUCAGAUUCUGGUGAAUUUGCGAAUUCUGCUGU
0.625
16) GGGGGCAACAGCAGAAGCGUUCAGGUCGCGGCCCCUGUCAGAUUCUGGUGAAUCUGCGAAUUCUGCUGU
0.0158
17) GGGCGCCACAGCAGAAGCGUUCACGUCGGGGCCCCUGUCAGAUUCUGGUGAAUCUGCGAAUUCUGCUGU
0.0753
18) GGGGACCACAGCAGAAGCGUUCACGUCGCGGCCCCUGGCAGAUUCUGGUGAAUCUGCGAAUUCUGCUGU
0.129
19) GGGGGCCACAGCAGAAGCGUUCACGUCGCGGCCCCUGUCAGAUUCUGGUGAAUCUGCCAAUUCUGCUGA
0.998
20) GGGGGCCACAGCAGAAGCGCUCACGUCGCGGCCCCUGCCAGAUUCUGGUGAAUCUGCGAAUUCUGCUGU
0.212
21) GGGGGCCACAGCAGAAGCGUUCACGUCGCGGCCCCUGUCAGAUUCUGCUAAAUCUGCGAAUUCUGCUGU
1.01
22) GGGGGCCACAGCAGAAGCGGUCACGUCGCGGCCCCUGUUAGAUUCUGGUGAAUCUGCGAAUUCUGCUGU
0.0993
